Biological target: HLA-DRB1*0301 (human)
Assay: competition
pIC50: −log10 of the molar value.
Recorded pIC50 values for a group of binders are listed next.

binder	measuredValue
PPSMVAAGSVVAAVQ [Cyclin D1.199 (9019.0170)]	< 4.70
LKSGMKELAVFREKV [IGFBP2.184 (9019.0185)]	< 4.70

Consider the record given below.
Enquiry: If you can, please state the reported pIC50 value of ERGPLEHLYSLHIPN [IGFBP2.249 (9019.0190)] .
Return: < 4.70
